assay: yeast display, Sf9 membrane polyspecificity reagent, FACS + sequencing; frameworks hold sequencing errors
readout.kind: polyreactivity (PSR sort gate)

As a guide, the following entries are already answered.
record.sequence | polyreactivity (PSR sort gate)
QVQLVESGGGLVQAGGSLRLSCAASGRTFYVNAMGWYRQAPGKETELVAAISSGSSTDYADSVKGRFTISRDNAKNTVYLQMNSLKPEDTAVYYCAKRWRRRFVDVWSLYDYWGQGTQVTVSS | low polyreactivity
QVQLVESGGGLVQAGGSLRLSCAASGIIFFKYAMGWYRQAPGKERELVARISWSGSTYADSVKGRFTISRDNAKNTVYLQMNSLKPEDTAVYYCAADSFTITADSDDYWGQGTQVTVSS | low polyreactivity
QVQLVESGGGLVQAGGSLRLSCAASGGTFGSYAMGWYRQAPAKERELVAAIRSGDRTYYADSVKGRFTISRDNAKNTDYLQMNSLKPEHTAVDYCAAFYHHYYRYDYWGQGTQVTVSS | low polyreactivity
QVQLVESGGGLVQAGGSLRLSCAASGSTYAVNVMGWYRQAPGKERELVATITYRDGRTYYADSVKGRFTISRDNAKNTVYLQMNSLKPEDTAVYYCAADAYRAQGDYWGQGTQVTVSS | low polyreactivity

Query: Which polyreactivity (PSR sort gate) value belongs to QVQLVESGGGLVQAGGSLRLSCAASGRIFGGYAMGWSRQAPGKERELVAAISNGGSTYYADSVKGRFTISRDNAKNTVYLQMNSLKPEDTAVYYCAARWNWTGYRYDHWGQGTQVTVSS ?
Result: low polyreactivity

Query: Need polyreactivity (PSR sort gate) of QVQLVESGGGLVQAGGSLRLSCAASGLTFVYYAMGWYRQAPGKERELVASIDYSGSSTYYADSVKGRFTISRDNSKNTVYLQMNSLKPEDTAVYYCAATDSGEYWGQGTQVTVSS , thanks.
Result: low polyreactivity

Query: Give its polyreactivity (PSR sort gate) value. Item: QVQLVESGGGLVQAGGSLRLSCAASGFTFAYYAMGWYRQAPGKEREFVAAINKGGGSTNYADSVKGRFTISRDNAKNTVYLQMNSLKPEDTAVYYCNADYFVWYIGRVFSRYGYWGQGTQVTVSS
Result: low polyreactivity

Query: Which polyreactivity (PSR sort gate) is reported for this sequence? QVQLVESGGGLVQAGGSLRLSCAASGSTFYYNAMGWYRQAPGKEREFVAAISSRGGSTYYADSVKGRFTISRDNAKTTVYLQMNSLKPEDTAVYYCAAKYRHRYDWGQGTQVTVSS
Result: high polyreactivity

Query: Need polyreactivity (PSR sort gate) of QVQLVESGGGLVQAGGSLRLSCAASGSTFYLNAMGWYRQAPGKERELVAAISSSGGSKYYADSVKGRFTISRDNAKNTVYLQMNSLKPEDTAVYYCACSCFPAVSVYGGDYWGQGTQVTVSS , thanks.
Result: low polyreactivity

Query: # query: polyreactivity (PSR sort gate) of entry QVQLVESGGGLVQAGGSLRLSCAASGFTFRYYAMGWYRQAPGKERELVASISGTGGRTYADSVKGRFTISRDNAKNTVYLQMNSLKPEDTAVYYCAAWSYAYYYRLRYVSHDYWGQGTQVTVSS
Result: high polyreactivity

Query: What value of polyreactivity (PSR sort gate) has been reported for the following sequence? QVQLVESGGGLVKAGCSLRLSCAASGFTFGRYAMGWYRQAPGKERELVAAISRTGGRTYYADSVKGRFTISRDNAKNTVYLQMNSLKPEDTAVYYCAADKGGTYFNGDSWGQGTQVTVSS
Result: high polyreactivity

---

assay: yeast display, Sf9 membrane polyspecificity reagent, FACS + sequencing; frameworks hold sequencing errors

record.sequence | polyreactivity (PSR sort gate)
QVQLVESGGGLVQAGGSLRLSCAASGFIFYSYAMGWYRQAPGKERELVAAISFSGSRTYYADSVKGRFTISRDNAKNTVYLQMNSLKPEDTAVYYCAAYYIASRSTRYYYWGQGTQVTVSS | high polyreactivity
QVQLVESGGGLVQAGGSLRLSCAASGFIFDTYAMGWYRQAPGKERELVAAISWTGTDTYYADSVKGRFTISRDNAKNTVYLQMNSLKPEDTAVYYCATDYGWLYINSIWEYDYWGQGTQVTVSS | high polyreactivity

---

test: yeast display, Sf9 membrane polyspecificity reagent, FACS + sequencing; frameworks hold sequencing errors
readout.kind: polyreactivity (PSR sort gate)

Solved cases below.
record.sequence | result
QVQLVESGGGLVQAGGSLRLSCAASGSTFSVNAMGWYIQAPGKEREFVAAIRWPGGSTYYADSVKGRFTISRDNAKNTVYLQLNSLKPEDTAVYYCAARIKYRYDWGQGTQVTVSS | low polyreactivity
QVQLVESGGGLVQAGGSLRLSCAASGFIFKQNARGWYRQAPGKERELVAAISWTGGSTYYADSVQGRFTISRDNAKNTVYLQMNSLKPEDTAVFYCAARKYKSTGDRRGTMDYWGQGTQVTVSS | high polyreactivity
QVQLVESGGGLVQAGGSLRLSCAASGGIFVIYAMGWYRQAPGKERELVAAITWGGGTTYYADSVKGRFTISRDNAKNTVYLQMNSLNPEDTAVYYCNADGFVYGWYYYYEGYDYWGQGTQVTVSS | low polyreactivity
QVQLVESGGGLVQAGGSLRLSCAASGSTFGRYAMGWYRQAPGKERELVAAISKSGGSTYYADSVKGRFTISRDNEKNTVYLQMNSLNPEDTAVYYCAATTTRYSYEYWGQGTQVTVSS | low polyreactivity
QVQLVESGGGLVQAGGSLSLSCAASVRIFVYNVMGWYRQAPGKERELVAAISWGTGSTYADSVKGRFTISRDNAKNTVYLQMNSLKPEDTAVYYCAAAADYYYDHDYWGQGTQVTVSS | low polyreactivity
QVQLVESGGGLVQAGGSLRLSCAASGSIFDINAMGWYRQAPGKERELVAVITDSGSTYYADSVKGRFTISRDNAKNTVYLQMNSLKPEDTAVYYCAAESSLLFFLMDYWGQGTQVTVSS | low polyreactivity

// below: polyreactivity (PSR sort gate) requested for another sequence
Query: Data request, read-out polyreactivity (PSR sort gate), for QVQLVESGGGLVQAGGSLRLSCAASGSIFDAYVMGWYRQAPGKERELVAAISRSGGSTYYADSVKGRFTISRDNAKNTVYLQMNSLKPEDTAVYYCAAEKIRSSPYRYDYWGQGTQVTVSS
Result: low polyreactivity

---

experiment: yeast display, Sf9 membrane polyspecificity reagent, FACS + sequencing; frameworks hold sequencing errors
readout.kind: polyreactivity (PSR sort gate)

Consider the reported polyreactivity (PSR sort gate) for these sequences:
record.sequence | result
QVQLVESGGGLVQAGGSLRLSCAASGGTFTFYAMGWYRQAPGKERELVATINWSGGSTYYADSVKGRFTNSRDNAKNTVYLQMNSLKPEDTAVYYCNAAWAYKSVEYWGQGTQVTVSS | low polyreactivity
QVQLVESGGGLVQAGGSLRLSCAASGFTFIYYAMGWYRQAPGKERELVAGISSGGRTSYADSVKGRFTISRDNAKNTVYLQMNSLKPEDTAVYYCATPVSRFRRTEYGYYYWGQGTQVTVSS | high polyreactivity
QVQLVESGGGLVQAGGRLRLSCDASGSIFYYYTMGWYRQAPGKEREFVAAITWRGASTYYADSVKGRFTISRDNAKNTVDLKMNSLKPEDTAVDYCNARWRVPRYRYDYWGQGTQVTVSS | high polyreactivity
QVQLVESGGGLVQAGGSLRLSCSASGFIFLDYAMGLYRQAPGKERELVAAISSRGARTYYADSVKGRFTISRDNAKNTVYLQMNSLKPEDTAVYYCAARGPHDRYGYWGQGNQVTVSS | high polyreactivity
QVQHVESGVGLVQAGGSLRLSCAASGRIFRWNAMGWYRQAPGKERELVAAISWNGGRTYYADSVKGRFTISRDNAKNTVYLQMNSLKPEDTAVYYCAAPHCVPDLHSGDYWGLGTQVTVSS | low polyreactivity
QVQLVESGGGVVQAGGRLRLSCAASGFTFGSNDMGWYRQAPGKETELVAAIDGSGDTYYADSVKGRFTISRDNAKNTVDLQMNSLKPEDTAVYYCAADVIYWFSGEYDYWGQGTQVTVSS | low polyreactivity
QVQLVESGGGLVQAGGSLRLSCAASGLIFKKYTMGWYRQAPGKERELVASISKSGGSTYYADSVKGRFTISRDNAKNTVYLLMNSLKPDDTAVYYCAVGSTDRVSAQGSYFTYDYWGQGTQVNVSS | low polyreactivity
QVQLVESGGGLVQAGGSLRLSCAASGLIYYRNAMGWYRQAPGKERELVAAISSDGSTYYADSVKGRFTISRDNPKNTVYLQMNSLKAEDTAVFYCAADYREFDAYGAARTLDFDYWGQGTQVTVSS | low polyreactivity

Query: polyreactivity (PSR sort gate) for QVQLVESGGGLVQAGGSLRLSCAASGSTFGVNVMGWYRQAPGKERELVAAISRSGGRTYYADSVKGRFTISRDNAKNTVYLQMNSLKPEDTAVYYCNTRGYDYWGQGTQVTVSS ?
Result: high polyreactivity

Query: Tell me the measured polyreactivity (PSR sort gate) of QVQLVESGGGLVQAGGSLRLSCAASVNTFYGYDMGWYRQAPGKEWELVASITLSGDSTYYADSVKGRFTISRDNEKNTVYLQMNSLKPEDTAVYYCAGVYTYPLGYYHYTYAYWGQGTQVTVSS , please.
Result: low polyreactivity

Query: Any idea what its polyreactivity (PSR sort gate) is? The sequence is QVQLVESGGGLVQAGGSLRLSCSASGRTFRWYTMGWYRQAPGKEREFVAAITWSGSSTDYADSVKGRFTISRDNAKNTVYFQMNSLKPEDTAVYYCAAENRRRRDDYWGQGTQVTVSS
Result: high polyreactivity
